target-desc: NGF (nerve growth factor) (Homo sapiens, UniProt P01138 P01138:122-241)
Sequence (P01138 122-241, one chain of several): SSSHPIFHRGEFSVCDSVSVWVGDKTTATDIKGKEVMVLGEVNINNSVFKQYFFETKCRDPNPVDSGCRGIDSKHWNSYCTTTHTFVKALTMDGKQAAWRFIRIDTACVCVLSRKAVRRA
assay-method-text: cell_activity; neurite; TF-1 0.046
applied-conditions: tags: R&D Systems; chain copies: 2
experimental-endpoint: IC50 (nM)

- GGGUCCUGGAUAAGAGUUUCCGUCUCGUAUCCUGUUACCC (ssRNA, as 82(1) except 2'-OMe U30) [SEQ ID NO: 82(11)]: 0.253
